testSystem: extracellular domain of human CD137 on the surface of CHO-K1 cells (human, UniProt Q07011 24-186)
measurementProtocol: flow cytometry on CHO-K1 cells with human CD137 ECD
Consider the cut-off 20 nM. If the recorded EC50 is strictly smaller, the label is rule met; if not, the label is rule not met.

Asked: Lab note: EC50 threshold 20 nM. Does this binder come in strictly under it? ISOP193ER9P1G9 (designed binder, not shown: small tags and cut ends) LPAPKNLVVSRVTEDSARLSWTAPDAAFDSFDIYYFEHPVGGEAIVLTVPGSERSYDLTGLKPGTEYLVTIYGVKGGNGSSPLSAIFTT
Given back: rule met

Asked: Further, for ISOP193ER9P1F7 (designed binder, not shown: small tags and cut ends) LPAPKNLVVSRVTEDSAHLSWTAPDAAFDSFDIYYFEHPVGGEAIVLTVPGSERSYDLTGLKPGTEYLVTIYGVKGGYLSMPLSAIFTT ?
Given back: rule not met

Asked: Further, for ISOP193ER9P1A3 (designed binder, not shown: small tags and cut ends) LPAPKNLVVSRVTEDSARLSWTTPDAAFDSFDIYYFEHPVGGEAIVLTVPGSERSYDLTGLKPGTEYLVTIYGVKGGYLSKPLSAIFTT ?
Given back: rule met

Asked: Further, for ISOP193ER9P1H11 (designed binder, not shown: small tags and cut ends) LPAPKNLVVSRVTEDSARLSWTAPDAAFDSFDIYYFEHPVGGEAIVLTVPGSERSYDLTGLKPGTEYLVAIYGVKGGVFSHPLSAIFTT ?
Given back: rule not met

Asked: Further, for ISOP193FR9P1G4 (designed binder, not shown: small tags and cut ends) LPAPKNLVVSRVTEDSARLSWTAPDAAFDSFEIYYFENELGGEAIVLTVPGSERSYDLTGLKPGTEYLVTIYGVKGGDWSDPLSAIFTT ?
Given back: rule not met

Asked: Further, for ISOP193AR9P1B10 (designed binder, not shown: small tags and cut ends) LPAPKNLVVSRVTEDSARLSWAFQWHIFDSFLIQYQESEKVGEAIVLTVPGSERSYDLTGLKPGTEYTVSIYGVGRHYTVYDSNPLSAIFTT ?
Given back: rule met

Asked: Further, for ISOP193ER9P1C4 (designed binder, not shown: small tags and cut ends) LPAPKNLVVSRVTEDSARLSWTAPDAAFDSFDIYYFEHPVGGEAIVLTVPGSERSYDLTGLKPGTEYLVTIYGVKGGIWSVPLSAIFTT ?
Given back: rule met

Asked: Further, for ISOP193ER9P1H2 (designed binder, not shown: small tags and cut ends) LPAPKNLVVSRVTEDSARLSWTAPDAAFDSFRISYLEDVYYGEAIVLTVPGSERSYDLTGLKPGTEYHVGIHGVKGGIDSFPLSAIFTT ?
Given back: rule not met

Asked: Further, for ISOP193ER9P1D4 (designed binder, not shown: small tags and cut ends) LPAPKNLVVSRVTEDSARLSWTAPDAAFDSFDIYYFEHPVGGEAIVLTVPGSERSYDLTGLKPGTEYLVTIYGVKGGTYSPPLSAIFTT ?
Given back: rule met

Asked: Further, for ISOP193ER9P1A4 (designed binder, not shown: small tags and cut ends) LPAPKNLIVSRVTEDSARLSWTAPDAAFDSFEIYYKELRAEGEAIVLTVPGSERSYDLTGLKPGTEYLVTIYGVKGGSVSIPLSAIFTT ?
Given back: rule not met

Asked: Further, for ISOP193ER9P1G2 (designed binder, not shown: small tags and cut ends) LPAPKNLVVSRVTEDSARLSWTAPDAAFDSFDIYYFEQPVGGEAIVLTVPGSERSYDLTGLKPGTEYLVTIYGVKGGYLSMPLSAIFTT ?
Given back: rule not met

Asked: Further, for ISOP193ER9P1C9 (designed binder, not shown: small tags and cut ends) LPAPKNLVVSRVTEDSARLSWTAPDAAFDSFDIYYFEHPVGGEAIVLTVPGSERSYDLTGLKPGTEYLVTIYGVKGGELSKPLSAISTT ?
Given back: rule met

Asked: Further, for ISOP193ER9P1C8 (designed binder, not shown: small tags and cut ends) LPAPKNLVVSRVTEDSARLSWTAPDAAFDSFDIYYFEHPVGGEAIVLTVPGSERSYDLTGLKPGTEYLVTIYGVKGGTYSLPLSAIFTT ?
Given back: rule met

Asked: Further, for ISOP193ER9P1E4 (designed binder, not shown: small tags and cut ends) LPAPKNLVVSRVTEDSARLSWTAPDAAFDSFAIIYQEYVKSGEAIVLTVPGSERSYDLTGLKPGTEYHVRIGGVKGGLLSLPLSAIFTT ?
Given back: rule not met

Asked: Further, for ISOP193AR9P1F9 (designed binder, not shown: small tags and cut ends) LPAPKNLVVSRVTEDSARLSWPLFASDLNIFDSFLIQYQESEKVGEAIVLTVPGSERSYDLTGLKPGTEYTVSIYGVGRHYTVYDSNPLSAIFTT ?
Given back: rule not met

Asked: Further, for ISOP193ER9P1E2 (designed binder, not shown: small tags and cut ends) LPAPKNLVVSRVTEDSARLSWTAPDAAFDSFDIYYFEHPVGGEAIVLTVPGSERSYDLTGLKPGTEYLVTIYGVKGGFWSQPLSAIFTT ?
Given back: rule met

Asked: Further, for ISOP193ER9P1A8 (designed binder, not shown: small tags and cut ends) LPAPKNLVVSRVTEDSARLSWTAPDAAFDSLDIYYFEHPVGGEAIVLTVPGSERSYDLTGLKPGTEYLVTIYGVKGGYLSMPLSAIFTT ?
Given back: rule met

Asked: Further, for ISOP193ER9P1E8 (designed binder, not shown: small tags and cut ends) LPAPKNLVVSRVTEDSARLSWTAPDAAFDSFDIYYFEHPVGGEAIVLTVPGSERSYDLTGLKPGTEYLVTIYGVKGGELSKPLSAIFTT ?
Given back: rule met
